target: CXCR4 (Homo sapiens); test: HPB-ALL CXCR4 competitive binding assay (12G5 binding assay); parameters: HPB-ALL cells were maintained in RPMI-1640 (Gibico) supplemented with 10% FBS (Hyclone); endogenous in cells; host or cells: HPB-ALL cells; settings: HPB-ALL cells; competition with APC-conjugated anti-human CXCR4 clone 12G5 at its EC80; 4° C. for 3 h; FACS
Sequence (P61073 whole entry): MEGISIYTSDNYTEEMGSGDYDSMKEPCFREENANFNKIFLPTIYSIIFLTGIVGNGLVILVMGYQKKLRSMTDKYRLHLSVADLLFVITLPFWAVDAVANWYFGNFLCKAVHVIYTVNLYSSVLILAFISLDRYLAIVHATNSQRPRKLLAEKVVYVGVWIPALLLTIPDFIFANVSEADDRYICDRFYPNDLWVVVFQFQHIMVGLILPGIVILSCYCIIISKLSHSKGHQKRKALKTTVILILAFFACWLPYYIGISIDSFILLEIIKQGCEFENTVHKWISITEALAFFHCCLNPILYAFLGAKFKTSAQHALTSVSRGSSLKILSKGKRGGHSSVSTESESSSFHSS
# strict inequality: IC50 < 70 nM yields criterion met, everything else yields criterion not met

1) CSc1nc(CN2CCCCC2c2ccccn2)cc(N2CCN(C)CC2)n1 (stereo not drawn) [Compound C18]; criterion not met
2) Cc1ccnc(C(C)N(C)Cc2cc(N3CCN(C)CC3)nc(C)n2)c1 (stereo not drawn); criterion not met
3) Cc1nc(CN(C)C(CCCN)c2ccccn2)cc(N2CCN(C)CC2)n1 (stereo not drawn); criterion not met
4) Cc1nc(CN(C)[C@@H](C)c2ccccn2)cc(N2CCN(C)CC2)n1; criterion met

Inquiry: Does the reported IC50 of the following compound sit strictly below 70 nM? Cc1nc(CN(C)[C@H]2CCCc3cccnc32)cc(N2CCN(C)C[C@@H]2C)n1
Reply text: criterion met

Inquiry: Does the reported IC50 of the following compound sit strictly below 70 nM? Cc1nc(CN(C)C(C)c2ccccn2)cc(N2CCN(C)CC2)n1 (stereo not drawn)
Reply text: criterion met

All values here come from patent US11396501B2.
